Experiment: Cytotoxicity to T-cells in vitro
Type: cell-based, human
Conditions: human, primary human T-cells; read-out: T-cell cytotoxicity IC50
pIC50: −log10 of the molar value.
quantity: pIC50

Enquiry: So what's the measured pIC50 for this one? CCOc1ccc(NC(=O)CSc2nc3ccc(NC(=O)c4ccccc4C)cc3s2)cc1
Return: < 4.00

====

Assign IC50 to each entry below.
System: HEK293 cells
Assay: Cytotoxicity against HEK293 cells (resazurin)
Format: cell-based, human
Details: 3 days treatment; curve-fitting, two biological replicates
Numbers only, in µM.

Enquiry: // returns reported IC50 for input O=C(Nc1ccc(S(=O)(=O)Nc2ncccn2)cc1)c1ccc(-c2ccccc2)cc1
Return: 51.1

Shift focus to the following entry.
Enquiry: Using the record for CN(C)CC[C@H](CSc1ccccc1)Nc1ccc(S(=O)(=O)NC(=O)c2ccc(N3CCN(Cc4ccccc4-c4ccc(Cl)cc4)CC3)cc2)cc1[N+](=O)[O-] [ABT-737, reference compound] , report its IC50.
Return: 28.8
